# Test system: HBV
# Assay Name: HBV inhibition assay: anti-HBV activity in vitro in HepG2.2.15 cells (extracellular HBV DNA by qPCR)
# Assay type: cell-based
# Condition Info: Hepatitis B virus, 120 h, five days after compound treatment, extracellular HBV DNA in culture supernatant by qPCR, concentration at which HBV replication is inhibited by 50%
# Text: Example 441: HBV Inhibition Assays Cell Line and Culture Conditions: HepG2.2.15 is a stably-transfected cell line containing the HBV genome. […] For quantitative PCR detection of extracellular HBV DNA, culture supernatant was processed by Proteinase K digestion. After heat inactivation of the enzyme, the samples were subjected to HBV DNA quantification by qPCR. […]
# strict inequality: EC50 < 40 nM yields Yes, everything else yields No

Molecule | Group
Cc1nc(C2(C)CC(=O)N(c3cnn4c3CN(C(=O)Nc3cc(F)c(F)c(F)c3)[C@@H](C)C4)C2)no1 (some centres unmarked) | Yes
CC1Cn2ncc(N3CCCC3=O)c2CN1C(=O)Nc1cc(F)c(F)c(F)c1 (centres unmarked) | No
C[C@H]1Cn2ncc(N3CC(C(=O)N4CCOCC4)CC3=O)c2CN1C(=O)Nc1cc(F)c(F)c(F)c1 (some centres unmarked) | No
C[C@H]1Cn2ncc(N3CC(N(C)c4ncccn4)CC3=O)c2CN1C(=O)Nc1cc(F)c(F)c(F)c1 (some centres unmarked) | Yes
C[C@H]1Cn2ncc(N3CC(c4cncs4)CC3=O)c2CN1C(=O)Nc1cc(F)c(F)c(F)c1 (some centres unmarked) | Yes
C[C@H]1Cn2ncc(N3CC(Nc4ncccn4)CC3=O)c2CN1C(=O)Nc1cc(F)c(F)c(F)c1 (some centres unmarked) | Yes
CC1Cn2ncc(C3CCCC3)c2CN1C(=O)Nc1cc(F)c(F)c(F)c1 (centres unmarked) | Yes

---

Each entry below lists one item and its recorded pEC50 value.
# Tested on: HBV
# Assay Name: HBV inhibition assay: anti-HBV activity in vitro in HepG2.2.15 cells (extracellular HBV DNA by qPCR)
# Format: cell-based
# Condition Info: Hepatitis B virus, 120 h, five days after compound treatment, extracellular HBV DNA in culture supernatant by qPCR, concentration at which HBV replication is inhibited by 50%
pEC50: −log10 of the molar value.

Compound | pEC50
C[C@H]1Cn2ncc(N3CC(C(F)(F)F)CC3=O)c2CN1C(=O)Nc1cc(F)c(F)c(F)c1 (stereo partly shown) | 7.64
O=C(Nc1ccc(F)c(Cl)c1)N1CCn2ncc(N3CCCC3=O)c2C1 | 7.34
COCC1CC(=O)N(c2cnn3c2CN(C(=O)Nc2ccc(F)c(Cl)c2)[C@@H](C)C3)C1 (stereo partly shown) | 7.48
C[C@H]1Cn2ncc(N3CC4(CCOC4)CC3=O)c2CN1C(=O)Nc1ccc(F)c(Cl)c1 (stereo partly shown) | 7.09

---

# Test system: HBV
# Assay Name: HBV inhibition assay: anti-HBV activity in vitro in HepG2.2.15 cells (extracellular HBV DNA by qPCR)
# Assay type: cell-based
# Condition Info: Hepatitis B virus, 120 h, five days after compound treatment, extracellular HBV DNA in culture supernatant by qPCR, concentration at which HBV replication is inhibited by 50%
# Text: Example 441: HBV Inhibition Assays Cell Line and Culture Conditions: HepG2.2.15 is a stably-transfected cell line containing the HBV genome. […] For quantitative PCR detection of extracellular HBV DNA, culture supernatant was processed by Proteinase K digestion. After heat inactivation of the enzyme, the samples were subjected to HBV DNA quantification by qPCR. […]
The entries below come with measured log10 of EC50 values attached.
Quantity Kind: log10 of EC50 (log10 of the value in µM)

Molecule | log10 of EC50
C[C@H]1Cn2ncc(N3CC4(CCC4)CC3=O)c2CN1C(=O)Nc1cc(F)c(F)c(F)c1 | -1.85
Cc1cnn(-c2cnn3c2CN(C(=O)Nc2ccc(F)c(Cl)c2)CC3)c1 | -1.35
C[C@H]1Cn2ncc(N3CC(C)(C)OC3=O)c2CN1C(=O)Nc1ccnc(C(F)F)c1 | -0.98
Cc1cc(NC(=O)N2CCn3ncc(-c4ccc(F)cc4)c3C2)ccn1 | -1.28
N#Cc1cc(NC(=O)N2CCn3ncc(-c4ccc(F)cn4)c3C2)ccc1F | -1.02
Cc1cc(NC(=O)N2CCn3cnc(-c4ccc(F)cc4F)c3C2)cc(F)c1F | -1.82
C[C@H]1Cn2ncc(N3CC(c4ccccc4)CC3=O)c2CN1C(=O)Nc1cc(F)c(F)c(F)c1 (some centres unmarked) | -2.30
C[C@H]1Cn2ncc(-c3ncc(F)cn3)c2CN1C(=O)Nc1cc(F)c(F)c(F)c1 | -1.40

---

# System: HBV
# Assay Name: HBV inhibition assay: anti-HBV activity in vitro in HepG2.2.15 cells (extracellular HBV DNA by qPCR)
# Assay type: cell-based
# Condition Info: Hepatitis B virus, 120 h, five days after compound treatment, extracellular HBV DNA in culture supernatant by qPCR, concentration at which HBV replication is inhibited by 50%
pEC50: −log10 of the molar value.
pEC50 reference
Quantity Kind: pEC50

Compound | Meas Value
C[C@H]1Cn2ncc(N3CC(Nc4ncc(F)cn4)CC3=O)c2CN1C(=O)Nc1cc(F)c(F)c(F)c1 (stereo partly shown) | 7.77
C[C@H]1Cn2ncc(N3CC4(CC4)OC3=O)c2CN1C(=O)Nc1cc(F)c(F)c(F)c1 | 7.92
C[C@H]1Cn2ncc(N3CC(Nc4ncncc4F)CC3=O)c2CN1C(=O)Nc1cc(F)c(F)c(F)c1 (stereo partly shown) | 7.77
C[C@H]1Cn2ncc(N3CC(C(=O)N4CCCC4)CC3=O)c2CN1C(=O)Nc1cc(F)c(F)c(F)c1 (stereo partly shown) | 7.13

---

# Tested on: HBV
# Assay Name: HBV inhibition assay: anti-HBV activity in vitro in HepG2.2.15 cells (extracellular HBV DNA by qPCR)
# Format: cell-based
# Condition Info: Hepatitis B virus, 120 h, five days after compound treatment, extracellular HBV DNA in culture supernatant by qPCR, concentration at which HBV replication is inhibited by 50%
# Excerpt: Example 441: HBV Inhibition Assays Cell Line and Culture Conditions: HepG2.2.15 is a stably-transfected cell line containing the HBV genome. […] For quantitative PCR detection of extracellular HBV DNA, culture supernatant was processed by Proteinase K digestion. After heat inactivation of the enzyme, the samples were subjected to HBV DNA quantification by qPCR. […]
Quantity Kind: log10(EC50) (log10 of the value in nM)

Compound | Meas Value
CC1Cn2ncc(N3CC(C)(C)CC3=O)c2CN1C(=O)Nc1ccc(F)c(Cl)c1 (centres unmarked) | 1.52
C[C@H]1Cn2ncc(N3CC(C)(C)OC3=O)c2CN1C(=O)Nc1cc(F)c(F)c(C(F)F)c1 | 0.78
C[C@H]1Cn2ncc(N3CC(COc4ncccn4)CC3=O)c2CN1C(=O)Nc1cc(F)c(F)c(F)c1 (some centres unmarked) | 1.59
C[C@H]1Cn2ncc(N3CC(C(F)(F)F)CC3=O)c2CN1C(=O)Nc1ccnc(C(F)F)c1 (some centres unmarked) | 1.88
N#Cc1cc(NC(=O)N2CCn3ncc(C4CCCC4)c3C2)ccc1F | 1.45
COCC1CC(=O)N(c2cnn3c2CN(C(=O)Nc2cc(F)c(F)c(F)c2)[C@@H](C)C3)C1 (some centres unmarked) | 1.90
O=C(Nc1ccc(F)c(Cl)c1)N1CCn2ncc(-c3ccccc3F)c2C1 | 1.52
C[C@H]1Cn2ncc(N3Cc4ccnn4CC3=O)c2CN1C(=O)Nc1cc(F)c(F)c(F)c1 | 1.85
C[C@H]1Cn2ncc(N3CCOCC3=O)c2CN1C(=O)Nc1cc(F)c(F)c(F)c1 | 1.88
O=C(Nc1ccc(F)c(Cl)c1)N1CCn2cnc(-c3ccc(F)cc3)c2C1 | 1.93
C[C@H]1Cn2ncc(N3CC(c4ccc(Cl)nc4)OC3=O)c2CN1C(=O)Nc1cc(F)c(F)c(F)c1 (some centres unmarked) | 1.20
C[C@H]1Cn2ncc(N3CCOCC3=O)c2CN1C(=O)Nc1ccc(F)c(Cl)c1 | 1.45
C[C@H]1Cn2ncc(N3CC(c4nccs4)CC3=O)c2CN1C(=O)Nc1cc(F)c(F)c(F)c1 (some centres unmarked) | 0.85
C[C@H]1Cn2ncc(N3CC(O)CC3=O)c2CN1C(=O)Nc1ccc(F)c(Cl)c1 (some centres unmarked) | 1.69
C[C@H]1Cn2ncc(N3CC(c4ncccn4)CC3=O)c2CN1C(=O)Nc1cc(F)c(F)c(F)c1 (some centres unmarked) | 0.78
C[C@H]1Cn2ncc(N3CC(C#N)(CO)CC3=O)c2CN1C(=O)Nc1cc(F)c(F)c(F)c1 (some centres unmarked) | 1.63
C[C@H]1Cn2ncc(-c3ccc(F)cn3)c2CN1C(=O)Nc1cc(F)c(F)c(F)c1 | 1.48
C[C@H]1Cn2ncc(N3CCCC3=O)c2CN1C(=O)Nc1cc(F)c(F)c(C(F)F)c1 | 1.58
C[C@H]1Cn2ncc(N3CC4(CCC4)C(O)C3=O)c2CN1C(=O)Nc1cc(F)c(F)c(F)c1 (some centres unmarked) | 1.81
C[C@H]1Cn2ncc(N3CC(C)(CO)CC3=O)c2CN1C(=O)Nc1cc(F)c(F)c(F)c1 (some centres unmarked) | 1.51
C[C@H]1Cn2ncc(N3CC4(CC3=O)CN(C(=O)c3ncco3)C4)c2CN1C(=O)Nc1cc(F)c(F)c(F)c1 | 1.82
CO[C@H]1CC(=O)N(c2cnn3c2CN(C(=O)Nc2cc(F)c(F)c(F)c2)[C@@H](C)C3)C1 | 1.45
C[C@H]1Cn2ncc(N3CC(C(=O)N(C)C)CC3=O)c2CN1C(=O)Nc1cc(F)c(F)c(F)c1 (some centres unmarked) | 2.01
CC1Cn2ncc(-n3cc(C#N)cn3)c2CN1C(=O)Nc1ccc(F)c(Cl)c1 (centres unmarked) | 1.58
CC1Cn2ncc(-c3ccc(F)cn3)c2CN1C(=O)Nc1ccc(F)c(Cl)c1 (centres unmarked) | 1.52
CC1Cn2ncc(N3CCCC3=O)c2CN1C(=O)Nc1ccc(F)c(Cl)c1 (centres unmarked) | 1.71
Cc1noc(C2CC(=O)N(c3cnn4c3CN(C(=O)Nc3cc(F)c(F)c(F)c3)[C@@H](C)C4)C2)n1 (some centres unmarked) | 1.00
CC1Cn2ncc(-c3ccc(F)cc3)c2CN1C(=O)Nc1ccc(F)c(Cl)c1 (centres unmarked) | 1.46
C[C@H]1Cn2ncc(N3CC(c4cocn4)OC3=O)c2CN1C(=O)Nc1cc(F)c(F)c(F)c1 (some centres unmarked) | 1.97
C[C@H]1Cn2ncc(N3CC(c4ccncc4)CC3=O)c2CN1C(=O)Nc1cc(F)c(F)c(F)c1 (some centres unmarked) | 1.11
CC1Cn2ncc(-c3ccc(F)cc3)c2CN1C(=O)Nc1ccc(F)c(C#N)c1 (centres unmarked) | 1.82
Cc1nnc(C2CC(=O)N(c3cnn4c3CN(C(=O)Nc3cc(F)c(F)c(F)c3)[C@@H](C)C4)C2)o1 (some centres unmarked) | 1.67
